Quick reference: selectivity ratio of the listed items.
protocol: Selectivity index, ratio of CC50 for human MT4 cells to EC50 for HIV1 3B infected in human MT4 cells
Format: toxicity, cell-based
settings: HIV1 3B infected MT4 cells, read-out: Ratio CC50/EC50

structure-smiles-string: Cc1cc(C#N)cc(C)c1Oc1ccnc(SCC(=O)Nc2ccc(C#N)cc2F)n1
selectivity ratio: > 48
//
structure-smiles-string: Cc1cc(C#N)cc(C)c1Oc1ccnc(SCC(=O)Nc2ccc(F)cc2)n1
selectivity ratio: > 38
//
structure-smiles-string: Cc1cc(C#N)cc(C)c1Oc1ccnc(SCC(=O)Nc2cccc(F)c2)n1
selectivity ratio: > 38
//
structure-smiles-string: COc1ccc(NC(=O)CSc2nccc(Oc3c(C)cc(C#N)cc3C)n2)cc1
selectivity ratio: ≥ 9
//
structure-smiles-string: Cc1cc(C#N)cc(C)c1Oc1ccnc(SCC(=O)Nc2ccc(S(N)(=O)=O)cc2)n1
selectivity ratio: > 34

Problem: Need selectivity ratio of Cc1cc(C#N)cc(C)c1Oc1ccnc(SCC(=O)Nc2ccccc2[N+](=O)[O-])n1 , thanks.
Solution: > 844

Problem: Likewise for Cc1cc(C#N)cc(C)c1Oc1ccnc(SCC(=O)Nc2ccc(Cl)cc2Cl)n1 ?
Solution: > 227

Problem: // next record Cc1cc(C#N)cc(C)c1Oc1ccnc(SCC(=O)Nc2ccccc2Cl)n1
Solution: > 1220

Problem: Another: Cc1cc(C#N)cc(C)c1Oc1ccnc(SCC(=O)Nc2ccc(O)cc2)n1
Solution: 9

Problem: Cool, now Cc1cc(C#N)cc(C)c1Oc1ccnc(SCC(=O)Nc2ccc(Br)cc2)n1
Solution: 17

* * *

protocol: Cytotoxicity against human MT4 cells assessed as reduction in cell viability incubated for 4 days MTT method
Format: cell-based
value-type: CC50 at 96 h

As a guide, the following entries are already answered.
structure-smiles-string: Cc1cc(C#N)cc(C)c1Oc1ccnc(SCC(=O)Nc2ccc(Cl)c(Cl)c2)n1
CC50 at 96 h: 89 µM
//
structure-smiles-string: Cc1cc(S(N)(=O)=O)ccc1NC(=O)CSc1nccc(Oc2c(C)cc(C#N)cc2C)n1
CC50 at 96 h: 46 µM
//
structure-smiles-string: Cc1cc(C#N)cc(C)c1Oc1ccnc(SCC(=O)Nc2ccccc2)n1
CC50 at 96 h: > 320 µM
//
structure-smiles-string: Cc1cc(C#N)cc(C)c1Oc1ccnc(SCC(=O)Nc2cc(Cl)cc(Cl)c2)n1
CC50 at 96 h: ≥ 41 µM
//
structure-smiles-string: Cc1cc(C#N)cc(C)c1Oc1ccnc(SCC(=O)Nc2cccc(Cl)c2)n1
CC50 at 96 h: > 294 µM

Problem: Which CC50 at 96 h is reported for this molecule? Cc1cc(C#N)cc(C)c1Oc1ccnc(SCC(=O)Nc2ccc(Cl)cc2Cl)n1
Solution: > 272 µM

Problem: Okay, and Cc1cc(C#N)cc(C)c1Oc1ccnc(SCC(=O)Nc2ccc(Br)cc2)n1 ?
Solution: 24 µM

Problem: Request: Cc1cc(C#N)cc(C)c1Oc1ccnc(SCC(=O)Nc2ccc(C#N)cc2F)n1
Solution: > 288 µM

Problem: # iterate: Cc1cc(C#N)cc(C)c1Oc1ccnc(SCC(=O)Nc2ccc([N+](=O)[O-])cc2)n1
Solution: > 287 µM

Problem: Entry Cc1cc(C#N)cc(C)c1Oc1ccnc(SCC(=O)Nc2ccc(C#N)cc2)n1 please
Solution: > 301 µM

Problem: Also Cc1cc(C#N)cc(C)c1Oc1nc(Nc2ccc(C#N)cc2)nc(N)c1Br ?
Solution: > 4.6 µM

* * *

System: Human immunodeficiency virus 2
protocol: Antiviral activity against HIV2 ROD infected in human MT4 cells assessed as inhibition of virus-induced cytopathicity incubated for 4 days by MTT method
Format: functional, organism-based
settings: Human immunodeficiency virus 2, ISOLATE ROD, MT4, 96 h
value-type: EC50

structure-smiles-string: Cc1cc(C#N)cc(C)c1Oc1ccnc(SCC(=O)Nc2ccc(Br)cc2)n1
EC50: > 24 µM
//
structure-smiles-string: Cc1cc(C#N)cc(C)c1Oc1ccnc(SCC(=O)Nc2cccc(F)c2)n1
EC50: > 306 µM
//
structure-smiles-string: Cc1cc(C#N)cc(C)c1Oc1ccnc(SCC(=O)Nc2ccc(C#N)cc2F)n1
EC50: > 288 µM
//
structure-smiles-string: Cc1cc(C#N)cc(C)c1Oc1ccnc(SCC(=O)Nc2ccc(Cl)cc2Cl)n1
EC50: > 272 µM
//
structure-smiles-string: Cc1cc(C#N)cc(C)c1Oc1ccnc(SCC(=O)Nc2ccc(C#N)cc2)n1
EC50: > 301 µM
//
structure-smiles-string: Cc1cc(C#N)cc(C)c1Oc1ccnc(SCC(=O)Nc2ccc(Cl)cc2)n1
EC50: > 294 µM
//
structure-smiles-string: Cc1cc(C#N)cc(C)c1Oc1ccnc(SCC(=O)Nc2cccc([N+](=O)[O-])c2)n1
EC50: > 287 µM
//
structure-smiles-string: Cc1cc(C#N)cc(C)c1Oc1ccnc(SCC(=O)Nc2ccc(S(N)(=O)=O)cc2)n1
EC50: > 266 µM

Problem: Sample Cc1cc(C#N)cc(C)c1Oc1ccnc(SCC(=O)Nc2ccc(F)cc2)n1 — what was its EC50?
Solution: > 306 µM

Problem: Thanks! And Cc1cc(C#N)cc(C)c1Oc1ccnc(SCC(=O)Nc2cc(Cl)cc(Cl)c2)n1 ?
Solution: > 41 µM

Problem: Cc1ccccc1NC(=O)CSc1nccc(Oc2c(C)cc(C#N)cc2C)n1 ?
Solution: > 309 µM

Problem: Can you handle Cc1cc(C#N)cc(C)c1Oc1ccnc(SCC(=O)Nc2ccccc2[N+](=O)[O-])n1 next?
Solution: > 287 µM

Problem: Entry COc1ccc(NC(=O)CSc2nccc(Oc3c(C)cc(C#N)cc3C)n2)cc1 please
Solution: > 69 µM

Problem: Try this compound next: Cc1cc(C#N)cc(C)c1Oc1ccnc(SCC(=O)Nc2ccc(Cl)c(Cl)c2)n1
Solution: > 89 µM

Problem: // same read-out, input: Cc1cc(C#N)cc(C)c1Oc1ccnc(SCC(=O)Nc2cccc(Cl)c2)n1
Solution: > 294 µM

* * *

The entries below are paired with their reported selectivity ratio.
protocol: Selectivity index, ratio of CC50 for human MT4 cells to EC50 for HIV1 3B infected in human MT4 cells
Format: toxicity, cell-based
settings: HIV1 3B infected MT4 cells, read-out: Ratio CC50/EC50
Give the value as a plain number.

structure-smiles-string: Cc1cc(S(N)(=O)=O)ccc1NC(=O)CSc1nccc(Oc2c(C)cc(C#N)cc2C)n1
value-type: selectivity ratio
reported: 57

Note: attention shifts to another entry.
Problem: Entry under review: NS(=O)(=O)c1ccc(NC(=O)CSc2nnc(Br)n2-c2ccc(C3CC3)c3ccccc23)c(Cl)c1 . Reported selectivity ratio?
Solution: 41600

* * *

Measured CC50 at 96 h by item
protocol: Cytotoxicity against human MT4 cells assessed as reduction in cell viability incubated for 4 days MTT method
Type: cell-based

structure-smiles-string: CC(C)Nc1cccnc1N1CCN(C(=O)c2cc3cc(NS(C)(=O)=O)ccc3[nH]2)CC1
reported: > 44 µM
--
structure-smiles-string: NS(=O)(=O)c1ccc(NC(=O)CSc2nnc(Br)n2-c2ccc(C3CC3)c3ccccc23)c(Cl)c1
reported: 5.82 µM
--
structure-smiles-string: Cc1cc(C#N)cc(C)c1Oc1ccnc(SCC(=O)Nc2ccccc2[N+](=O)[O-])n1
reported: > 287 µM

Problem: Form field: reported CC50 at 96 h of Cc1cc(C#N)cc(C)c1Oc1ccnc(SCC(=O)Nc2cccc(F)c2)n1
Solution: > 306 µM

Problem: Repeat with Cc1cc(C#N)cc(C)c1Oc1ccnc(SCC(=O)Nc2ccccc2Cl)n1
Solution: > 294 µM

Problem: Repeat for the following molecule: Cc1cc(C#N)cc(C)c1Oc1ccnc(SCC(=O)Nc2ccc(Cl)cc2)n1
Solution: > 294 µM

Problem: Try this molecule next: Cc1cc(C#N)cc(C)c1Oc1ccnc(SCC(=O)Nc2ccc(F)cc2)n1
Solution: > 306 µM

Problem: Okay, and COc1ccc(NC(=O)CSc2nccc(Oc3c(C)cc(C#N)cc3C)n2)cc1 ?
Solution: ≥ 69 µM

* * *

protocol: Selectivity index, ratio of CC50 for human MT4 cells to EC50 for HIV1 3B infected in human MT4 cells
Format: toxicity, cell-based
settings: HIV1 3B infected MT4 cells, read-out: Ratio CC50/EC50
value-type: selectivity ratio

Worked cases, selectivity ratio given:
structure-smiles-string: Cc1cc(C#N)cc(C)c1Oc1ccnc(SCC(=O)Nc2ccc(Cl)cc2)n1
selectivity ratio: > 75

structure-smiles-string: Cc1cc(C#N)cc(C)c1Oc1ccnc(SCC(=O)Nc2cccc(Cl)c2)n1
selectivity ratio: > 37

Okay, now this molecule:
Problem: Report selectivity ratio for Cc1cc(C#N)cc(C)c1Oc1ccnc(SCC(=O)Nc2ccc([N+](=O)[O-])cc2)n1 please.
Solution: > 205
